Recorded IC50 values for a group of compounds are listed next.
- target under test: human NLRP3 (Homo sapiens, UniProt Q96P20)
- Sequence (Q96P20 whole entry): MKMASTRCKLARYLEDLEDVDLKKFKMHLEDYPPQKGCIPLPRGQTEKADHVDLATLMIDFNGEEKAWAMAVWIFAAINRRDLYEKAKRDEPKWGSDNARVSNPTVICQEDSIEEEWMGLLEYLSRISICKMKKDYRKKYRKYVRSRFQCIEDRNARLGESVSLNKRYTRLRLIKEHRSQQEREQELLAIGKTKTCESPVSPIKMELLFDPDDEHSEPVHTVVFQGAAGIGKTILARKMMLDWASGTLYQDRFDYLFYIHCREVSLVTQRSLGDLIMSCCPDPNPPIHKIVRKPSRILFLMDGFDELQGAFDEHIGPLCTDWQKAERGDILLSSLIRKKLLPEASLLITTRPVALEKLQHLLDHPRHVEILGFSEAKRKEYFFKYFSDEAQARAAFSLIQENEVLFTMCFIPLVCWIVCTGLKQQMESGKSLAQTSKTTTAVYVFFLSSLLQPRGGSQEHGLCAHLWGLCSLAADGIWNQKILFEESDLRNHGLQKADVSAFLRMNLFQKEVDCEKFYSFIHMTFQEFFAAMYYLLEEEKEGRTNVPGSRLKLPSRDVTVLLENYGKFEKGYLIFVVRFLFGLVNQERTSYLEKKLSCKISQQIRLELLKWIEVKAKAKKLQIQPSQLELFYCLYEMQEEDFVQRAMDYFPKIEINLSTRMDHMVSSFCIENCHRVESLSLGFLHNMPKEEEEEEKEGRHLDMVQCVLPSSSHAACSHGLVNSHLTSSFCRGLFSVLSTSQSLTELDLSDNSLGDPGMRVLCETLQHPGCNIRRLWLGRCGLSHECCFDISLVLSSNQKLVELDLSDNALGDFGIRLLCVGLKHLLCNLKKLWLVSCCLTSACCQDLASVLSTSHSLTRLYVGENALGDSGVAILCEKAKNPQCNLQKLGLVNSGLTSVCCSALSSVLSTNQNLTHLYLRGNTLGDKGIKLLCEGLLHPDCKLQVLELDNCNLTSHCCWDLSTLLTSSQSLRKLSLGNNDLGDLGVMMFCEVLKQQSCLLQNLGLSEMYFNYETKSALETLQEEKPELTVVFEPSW
- test method notes: Scintillation Proximity (SPA) NLRP3 Assay, displacement of 3H-MCC950
- Format: binding
- settings: Table B, activity class; displacement of 3H-MCC950 from human NLRP3

### Prompt Using the record for C[C@@H]1CCN(c2nnn[nH]2)C[C@H](NC(=O)N(C)c2ccc(OC(F)(F)F)c(OC(F)F)c2)C1 (single isomer, unassigned) [25A*] , report its IC50.
### Response < 1 µM

### Prompt # iterate: C[C@@H]1C[C@H](NC(=O)N(C)c2ccc(OC(F)(F)F)cc2)[C@H]2CC[C@@H]1N2c1nnn[nH]1 (single isomer, unassigned) [45B*]
### Response 10 to 50 µM

New cases:
### Prompt Using the record for C[C@H]1C[C@@H](NC(=O)N(C)c2ccc(OC(F)F)cc2)[C@@H]2CC[C@H]1N2c1nnn[nH]1 (single isomer, unassigned) [42C*] , report its IC50.
### Response > 100 µM

* * *

- target under test: human NLRP3 (Homo sapiens)
- test method notes: Scintillation Proximity (SPA) NLRP3 Assay, displacement of 3H-MCC950
- Format: binding
- settings: Table B, activity class; displacement of 3H-MCC950 from human NLRP3
reported metric: IC50

### Prompt // lookup IC50 | system=human NLRP3 (Homo sapiens) | key= C[C@H]1C[C@H](NC(=O)N(C)c2ccc(C(F)(F)F)c(F)c2)[C@@H]2CC[C@H]1N2c1nnn[nH]1 (single isomer, unassigned) [49D*]
### Response 50 to 100 µM

### Prompt # iterate: C[C@@H]1CCN(c2nnn[nH]2)C[C@H](NC(=O)N(C)c2ccc(C(F)(F)F)nn2)C1 (single isomer, unassigned) [33A*]
### Response 10 to 50 µM

Shift focus to the following entry.
### Prompt // lookup IC50 | system=human NLRP3 (Homo sapiens) | key= C[C@H]1CCN(c2nnn[nH]2)C[C@@H](NC(=O)N(C)c2ccc(OC(F)(F)F)cc2)C1 (single isomer, unassigned) [10D*]
### Response 1 to 10 µM

* * *

- target under test: human NLRP3 (Homo sapiens, UniProt Q96P20)
- test method notes: Scintillation Proximity (SPA) NLRP3 Assay, displacement of 3H-MCC950
- Assay type: binding
- settings: Table B, activity class; displacement of 3H-MCC950 from human NLRP3
pIC50: −log10 of the molar value.
Recorded pIC50 values for a group of compounds are listed next.

Solved entries (count: 5):
### Prompt // lookup pIC50 | system=human NLRP3 (Homo sapiens, UniProt Q96P20) | key= C[C@@H]1C[C@@H](NC(=O)N(C)c2ccc(OC(F)F)cc2F)[C@H]2CC[C@@H]1N2c1nnn[nH]1 (single isomer, unassigned) [57A*]
### Response > 6.00

### Prompt # iterate: CCN(C(=O)N[C@@H]1C[C@H](C)CCN(c2nnn[nH]2)C1)c1ccc(OC(F)(F)F)cc1 (single isomer, unassigned) [43A*]
### Response > 6.00

### Prompt # iterate: C[C@@H]1CCN(c2nnn[nH]2)C[C@H](NC(=O)N(C)c2c(F)cc(C3CC3)cc2F)C1 (single isomer, unassigned) [20A*]
### Response > 6.00

### Prompt # iterate: C[C@H]1C[C@H](NC(=O)N(C)c2ccc(OC(F)F)c(F)c2)[C@@H]2CC[C@H]1N2c1nnn[nH]1 (single isomer, unassigned) [52D*]
### Response 4.30 to 5.00

### Prompt # iterate: C[C@H]1CCN(c2nnn[nH]2)C[C@@H](NC(=O)N(C)c2ccc(C(F)F)c(F)c2)C1 (single isomer, unassigned) [22D*]
### Response 5.00 to 6.00

New cases:
### Prompt // lookup pIC50 | system=human NLRP3 (Homo sapiens, UniProt Q96P20) | key= C[C@H]1CCN(c2nnn[nH]2)C[C@H](NC(=O)N(C)c2ccc(C(F)(F)F)cc2F)C1 (single isomer, unassigned) [13C*]
### Response < 4.00

### Prompt # iterate: C[C@@H]1C[C@@H](NC(=O)N(C)c2ccc(OC(F)(F)F)cc2F)[C@H]2CC[C@@H]1N2c1nnn[nH]1 (single isomer, unassigned) [56A*]
### Response > 6.00
